- methodDescription: Oral pharmacokinetics (plasma, brain, CSF)
- Assay type: in vivo
- conditionSet: Sprague Dawley, rat, plasma, po, 10 mg/kg, Sprague Dawley rats, per os, normal saline, read-out: Tmax
Quick rule for you: Tmax at 50 min or higher means T, lower means F.

# input Is it the case that C[C@@H](O)[C@H](NC(=O)C1CCC2(CNC2=O)N1Cc1ccccc1)C(N)=O (single isomer, unassigned) [AM] has Tmax reaching or exceeding 50 min?
# output F

# input Test whether the compound CC(C)(C)OC(=O)N1C(C(N)=O)CCC12CN(OCc1ccccc1)C2=O (single isomer, unassigned) [BH] records Tmax of 50 min or higher.
# output F

# input Is reported Tmax greater than or equal to 50 min here: CC(C)C(=O)N1C2(CCC13CNC3=O)CNC2=O (single isomer, unassigned) [AH]
# output T

# input Hi team, for CC(=O)N1C(C(=O)N[C@H](C(N)=O)[C@@H](C)O)CCC12CNC2=O (stereo partly shown) [AO] , is the recorded Tmax at or above 50 min?
# output T

* * *

- methodDescription: Oral pharmacokinetics (plasma, brain, CSF)
- Type: in vivo
- conditionSet: Sprague Dawley rats, per os, 10 mg/kg, brain
So I've got a bunch of molecules here, and I need their Brain Cmax values.

Summary for this molecule, C[C@@H](O)[C@H](NC(=O)C1CCC2(CNC2=O)N1)C(N)=O (single isomer, unassigned) [AQ-1] : Brain Cmax is 0 ng/mL

Item: CC(=O)N1C(C(=O)N[C@H](C(N)=O)[C@@H](C)O)CCC12CNC2=O (stereo partly drawn) [AO] | Brain Cmax: 0 ng/mL

// Brain Cmax value for CC(C)C(=O)N1C(C(=O)N[C@H](C(N)=O)[C@@H](C)O)CCC12CNC2=O (single isomer, unassigned) [AS] : 0 ng/mL

C[C@@H](O)[C@@H](C(N)=O)N1CC2(CCC3(CN([C@H](C(N)=O)[C@@H](C)O)C3=O)N2C(=O)OC(C)(C)C)C1=O (stereo partly drawn) [BY] yielded Brain Cmax of 0 ng/mL

The reported Brain Cmax of the molecule CC(C)CN1[C@]2(CC[C@]13CNC3=O)CNC2=O [Compound AF] was 1313.8 ng/mL

For record CC(C)(C)OC(=O)N1C(C(N)=O)CCC12CN(OCc1ccccc1)C2=O (single isomer, unassigned) [BH] the listed Brain Cmax is 0 ng/mL

Per the record, C[C@@H](O)[C@H](NC(=O)C1CCC2(CNC2=O)N1Cc1ccccc1)C(N)=O (single isomer, unassigned) [AM] has Brain Cmax of 0 ng/mL

Record summary for CC(C)CN1[C@@]2(CC[C@@]13CNC3=O)CNC2=O [Compound AD] : reported Brain Cmax = 1143.2 ng/mL

Form: molecule = C[C@@H](O)[C@H](NC(=O)C1CCC2(CNC2=O)N1)C(N)=O (single isomer, unassigned) [AQ-2] ; Brain Cmax = 0 ng/mL

Input C[C@@H](O)[C@H](NC(=O)C1CCC2(CNC2=O)N1Cc1ccccc1)C(N)=O (single isomer, unassigned) [AN] . Output Brain Cmax: 0 ng/mL

CC(C)C(=O)N1C2(CCC13CNC3=O)CNC2=O (single isomer, unassigned) [AH] yielded Brain Cmax of 45.8 ng/mL

molecule O=C1NCC12CCC1(CNC1=O)N2 (single isomer, unassigned) [AJ] , Brain Cmax observed: 0 ng/mL

* * *

Would you kindly list Tmax for each of these compounds?
- methodDescription: Oral pharmacokinetics (plasma, brain, CSF)
- Type: in vivo
- conditionSet: rat, plasma, po; Sprague Dawley rats, per os, 10 mg/kg, normal saline; read-out: Tmax
Please give a number only; it is taken to be in min.

Per the record, CC(C)CN1[C@]2(CC[C@]13CNC3=O)CNC2=O has Tmax of 25.2

Reported Tmax for O=C1NCC12CCC1(CNC1=O)N2 (single isomer, unassigned) was 30

// Tmax lookup, compound = CC(C)CN1[C@@]2(CC[C@@]13CNC3=O)CNC2=O , result: 19.8

* * *

- methodDescription: Oral pharmacokinetics (plasma, brain, CSF)
- Type: in vivo
- conditionSet: Sprague Dawley rats, per os, 10 mg/kg, CSF
I'd be grateful if you could share measured CSF Cmax for these entries.
Give just the numeric value; ng/mL need not be written.

Sample C[C@@H](O)[C@H](NC(=O)C1CCC2(CNC2=O)N1)C(N)=O (single isomer, unassigned) [AQ-1] ; CSF Cmax observed: 0

Record CC(C)C(=O)N1C2(CCC13CNC3=O)CNC2=O (single isomer, unassigned) , field CSF Cmax: 123

# CSF Cmax (compound: CC(C)CN1[C@@]2(CC[C@@]13CNC3=O)CNC2=O ) is 1965.2

Looking up CC(C)CN1[C@]2(CC[C@]13CNC3=O)CNC2=O , I see its CSF Cmax listed as 2781

// sample O=C1NCC12CCC1(CNC1=O)N2 (single isomer, unassigned) , its CSF Cmax was 71.9

* * *

- targetDesc: NMDAR2A expressing HEK cell membranes (Homo sapiens, UniProt Q05586+Q12879)
- Construct: expressed in transfected cells; host or cells: HEK cells (membrane extract)
- Sequence (Q12879 23-1464, other chains not shown): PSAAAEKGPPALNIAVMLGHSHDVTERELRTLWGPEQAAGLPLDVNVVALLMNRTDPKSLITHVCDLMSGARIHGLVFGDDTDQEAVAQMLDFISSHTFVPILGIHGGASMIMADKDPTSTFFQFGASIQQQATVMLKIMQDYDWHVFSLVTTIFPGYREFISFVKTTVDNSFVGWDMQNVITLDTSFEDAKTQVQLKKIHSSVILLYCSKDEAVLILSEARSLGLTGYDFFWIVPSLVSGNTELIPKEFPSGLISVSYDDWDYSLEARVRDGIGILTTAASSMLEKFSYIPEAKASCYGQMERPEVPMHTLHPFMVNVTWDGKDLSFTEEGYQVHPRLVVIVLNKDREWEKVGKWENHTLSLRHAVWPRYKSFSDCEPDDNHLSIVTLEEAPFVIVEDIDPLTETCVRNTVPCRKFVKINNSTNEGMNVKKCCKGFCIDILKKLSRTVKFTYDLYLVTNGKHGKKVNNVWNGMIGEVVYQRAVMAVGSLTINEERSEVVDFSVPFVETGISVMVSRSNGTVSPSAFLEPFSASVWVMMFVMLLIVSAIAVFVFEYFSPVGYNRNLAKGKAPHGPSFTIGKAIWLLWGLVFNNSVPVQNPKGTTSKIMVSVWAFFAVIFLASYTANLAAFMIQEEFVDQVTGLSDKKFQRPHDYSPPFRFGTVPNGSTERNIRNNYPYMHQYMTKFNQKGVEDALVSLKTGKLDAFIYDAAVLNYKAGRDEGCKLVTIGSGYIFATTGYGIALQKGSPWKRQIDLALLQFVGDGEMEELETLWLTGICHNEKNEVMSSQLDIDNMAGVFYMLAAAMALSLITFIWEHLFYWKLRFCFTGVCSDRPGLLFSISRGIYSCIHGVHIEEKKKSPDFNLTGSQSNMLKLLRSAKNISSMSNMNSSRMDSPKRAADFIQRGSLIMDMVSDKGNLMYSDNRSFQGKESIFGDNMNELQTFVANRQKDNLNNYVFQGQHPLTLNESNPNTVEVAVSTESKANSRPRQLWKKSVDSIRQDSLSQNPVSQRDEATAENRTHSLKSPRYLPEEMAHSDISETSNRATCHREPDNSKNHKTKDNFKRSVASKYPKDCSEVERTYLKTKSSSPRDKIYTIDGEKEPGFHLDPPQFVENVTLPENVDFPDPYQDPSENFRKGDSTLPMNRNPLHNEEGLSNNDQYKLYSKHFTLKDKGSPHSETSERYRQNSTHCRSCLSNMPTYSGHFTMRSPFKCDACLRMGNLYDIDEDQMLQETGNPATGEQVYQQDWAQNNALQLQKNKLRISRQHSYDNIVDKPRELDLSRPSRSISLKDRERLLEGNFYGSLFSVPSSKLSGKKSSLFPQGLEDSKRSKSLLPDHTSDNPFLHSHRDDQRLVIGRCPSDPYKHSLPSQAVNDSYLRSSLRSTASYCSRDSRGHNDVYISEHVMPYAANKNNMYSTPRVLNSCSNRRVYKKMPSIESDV
- methodDescription: NMDAR agonist assay, [3H]MK-801 binding, NMDAR2A
- Type: biochemical
- conditionSet: 50 μM glutamate; [3H]MK-801 binding; read-out: NMDAR2A: log EC50 (converted)
For each record, write down the corresponding EC50.

For this molecule ( C[C@@H](O)[C@H](NCC1CCC2(CNC2=O)N1C(=O)OC(C)(C)C)C(N)=O (stereo partly shown) ), measured EC50 is > 100 nM

response.value for CC(C)(C)OC(=O)N1C(C(N)=O)CCC12CNC2=O (single isomer, unassigned) (field: EC50) = < 1 nM

EC50 for C[C@@H](O)[C@@H](C(N)=O)N(C)CC1CCC2(CN(OCc3ccccc3)C2=O)N1C(=O)OC(C)(C)C (stereo partly shown) is < 1 nM

Please fill in: EC50 reported for CC(O)C(NCC1CCC2(CNC2=O)N1)C(N)=O (single isomer, unassigned) = < 1 nM

* * *

- targetDesc: NMDAR2B expressing HEK cell membranes (Homo sapiens, UniProt Q05586+Q13224)
- Construct: expressed in transfected cells; host or cells: HEK cells (membrane extract)
- Sequence (Q13224 27-1484, other chains not shown): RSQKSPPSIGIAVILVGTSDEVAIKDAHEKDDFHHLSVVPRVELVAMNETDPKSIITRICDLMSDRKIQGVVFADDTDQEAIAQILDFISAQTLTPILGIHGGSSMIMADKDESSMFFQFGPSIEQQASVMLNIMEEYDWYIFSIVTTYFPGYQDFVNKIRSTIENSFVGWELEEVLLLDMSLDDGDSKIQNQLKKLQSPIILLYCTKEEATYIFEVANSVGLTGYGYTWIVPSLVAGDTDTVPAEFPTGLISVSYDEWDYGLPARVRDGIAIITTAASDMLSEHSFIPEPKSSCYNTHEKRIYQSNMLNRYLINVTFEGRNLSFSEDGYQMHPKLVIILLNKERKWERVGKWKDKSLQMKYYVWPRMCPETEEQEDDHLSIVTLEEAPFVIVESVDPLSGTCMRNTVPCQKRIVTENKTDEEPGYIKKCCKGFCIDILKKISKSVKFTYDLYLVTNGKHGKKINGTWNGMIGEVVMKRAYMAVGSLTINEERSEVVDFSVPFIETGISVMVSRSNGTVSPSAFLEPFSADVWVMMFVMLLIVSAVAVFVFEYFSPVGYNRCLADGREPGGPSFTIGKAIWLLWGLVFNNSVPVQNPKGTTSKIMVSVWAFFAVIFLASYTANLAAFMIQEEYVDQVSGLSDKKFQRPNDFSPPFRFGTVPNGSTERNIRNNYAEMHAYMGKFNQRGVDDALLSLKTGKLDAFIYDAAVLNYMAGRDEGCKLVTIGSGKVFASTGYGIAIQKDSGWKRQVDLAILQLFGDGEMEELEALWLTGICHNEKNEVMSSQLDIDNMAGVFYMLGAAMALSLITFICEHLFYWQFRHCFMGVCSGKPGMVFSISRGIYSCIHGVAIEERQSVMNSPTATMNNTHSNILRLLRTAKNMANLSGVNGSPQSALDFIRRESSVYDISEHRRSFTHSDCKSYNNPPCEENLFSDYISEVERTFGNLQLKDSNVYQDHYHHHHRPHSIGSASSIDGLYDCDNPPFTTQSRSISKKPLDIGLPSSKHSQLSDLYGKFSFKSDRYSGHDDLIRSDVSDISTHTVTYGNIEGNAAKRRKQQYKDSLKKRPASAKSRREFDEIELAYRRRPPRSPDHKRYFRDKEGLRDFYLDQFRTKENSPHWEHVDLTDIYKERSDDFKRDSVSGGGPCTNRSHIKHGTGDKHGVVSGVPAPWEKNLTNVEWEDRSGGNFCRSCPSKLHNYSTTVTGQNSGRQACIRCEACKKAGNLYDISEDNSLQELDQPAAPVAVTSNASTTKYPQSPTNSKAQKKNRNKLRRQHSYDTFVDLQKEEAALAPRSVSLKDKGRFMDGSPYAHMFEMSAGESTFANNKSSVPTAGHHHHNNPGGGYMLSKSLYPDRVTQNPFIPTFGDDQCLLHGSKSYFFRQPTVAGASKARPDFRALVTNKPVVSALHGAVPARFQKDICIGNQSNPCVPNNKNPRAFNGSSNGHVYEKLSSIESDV
- methodDescription: NMDAR agonist assay, [3H]MK-801 binding, NMDAR2B
- Type: biochemical
- conditionSet: 50 μM glutamate; [3H]MK-801 binding; read-out: NMDAR2B log EC50 (converted)
readout: EC50

Lab note: C[C@@H](O)[C@H](NC(=O)C1CCC2(CNC2=O)N1Cc1ccccc1)C(N)=O (single isomer, unassigned) [AM] gave EC50 of < 1 nM

According to the records, this compound CC(C)(C)OC(=O)N1C(C(N)=O)CCC12CN(OCc1ccccc1)C2=O (single isomer, unassigned) displays EC50 of < 1 nM

Entry under test: C[C@@H](O)[C@H](NCC1CCC2(CN(OCc3ccccc3)C2=O)N1C(=O)OC(C)(C)C)C(=O)N(C)C (single isomer, unassigned) . Its EC50 was < 1 nM

Query NC(=O)C1CCC2(CN(OCc3ccccc3)C2=O)N1 (single isomer, unassigned) yields EC50 of < 1 nM

GET /value?item= C[C@@H](O)[C@@H](C(N)=O)N(C)CC1CCC2(CN(OCc3ccccc3)C2=O)N1C(=O)OC(C)(C)C (stereo partly shown) &field=EC50 returns < 1 nM

Lab note: measured EC50 of CC(C)CN1C(C(=O)N[C@H](C(N)=O)[C@@H](C)O)CCC12CNC2=O (single isomer, unassigned) [BA] was > 100 nM

# EC50 of CC(C)C(=O)N1C[C@@H](C(N)=O)C[C@]12CNC2=O = > 100 nM

* * *

- targetDesc: NMDAR2B expressing HEK cell membranes (Homo sapiens, UniProt Q13224)
- Construct: expressed in transfected cells; host or cells: HEK cells (membrane extract)
- Sequence (Q13224 27-1484, other chains not shown): as above
- methodDescription: NMDAR agonist assay, [3H]MK-801 binding, NMDAR2B
- Type: biochemical
- conditionSet: 50 μM glutamate; [3H]MK-801 binding; read-out: NMDAR2B log EC50 (converted)
Kindly supply the reported EC50 values for the records listed here.

Please fill in: EC50 reported for CNC(=O)C(NCC1CCC2(CNC2=O)N1)C(C)O (single isomer, unassigned) [CR] = < 1 nM

For C[C@@H](O)[C@H](NC1CN(C(=O)OC(C)(C)C)C2(CNC2=O)C1)C(N)=O (single isomer, unassigned) [CH] the compound record lists EC50 as > 100 nM

According to the records, this compound CC(O)C(NCC1CCC2(CNC2=O)N1)C(N)=O (single isomer, unassigned) [CN] displays EC50 of < 1 nM

Entry NC(=O)C1CCC2(CNC2=O)N1 (single isomer, unassigned) [DB] — recorded EC50 = < 1 nM

CC(C)(C)OC(=O)N1C2(CCC13CNC3=O)CNC2=O (single isomer, unassigned) [AA-2] has a reported EC50 of > 100 nM

Quick note, EC50 for NC(=O)C1CCC2(CNC2=O)N1Cc1ccccc1 (single isomer, unassigned) [DF] landed at < 1 nM

response.value for C[C@@H](O)[C@H](NC(=O)C1CCC2(CNC2=O)N1)C(N)=O (single isomer, unassigned) [AQ-2] (field: EC50) = < 1 nM

// sample CC(C)(C)OC(=O)N1C2(CCC13CNC3=O)CNC2=O (single isomer, unassigned) [AA-3] , its EC50 was > 100 nM

EC50 recorded for this compound, CNC(=O)C(C(C)O)N(C)CC1CCC2(CN(OCc3ccccc3)C2=O)N1 (single isomer, unassigned) [CX] , is < 1 nM

EC50 reported for this compound CC(O)C(C(N)=O)N(C)CC1CCC2(CN(OCc3ccccc3)C2=O)N1 (single isomer, unassigned) [CS] : < 1 nM

For reference, reported EC50 for CNC(=O)C(NCC1CCC2(CN(OCc3ccccc3)C2=O)N1)C(C)O (single isomer, unassigned) [CP] stands at < 1 nM

Briefly, EC50 measured for CC(C)(C)OC(=O)N1CC2(CNC2=O)CC12CNC2=O (stereo not shown) [AY-1] : < 1 nM

According to the records, this compound O=C1NCC12CCC1(CNC1=O)N2Cc1ccccc1 (single isomer, unassigned) [AC-1] displays EC50 of < 1 nM

According to the records, this compound C[C@@H](O)[C@H](NC(=O)C1CCC2(CNC2=O)N1C)C(N)=O (single isomer, unassigned) [BD] displays EC50 of < 1 nM

Recorded EC50 (compound O=C1NCC12CCC1(CNC1=O)N2Cc1ccccc1 (single isomer, unassigned) [AC-3] ): < 1 nM

Reported EC50 of CC(O)C(NCC1CCC2(CN(OCc3ccccc3)C2=O)N1)C(N)=O (single isomer, unassigned) [CL] : < 1 nM

meta.source: patent US11028095B2
